target: human NK1 receptor (Homo sapiens, UniProt P25103)
Sequence (P25103 whole entry): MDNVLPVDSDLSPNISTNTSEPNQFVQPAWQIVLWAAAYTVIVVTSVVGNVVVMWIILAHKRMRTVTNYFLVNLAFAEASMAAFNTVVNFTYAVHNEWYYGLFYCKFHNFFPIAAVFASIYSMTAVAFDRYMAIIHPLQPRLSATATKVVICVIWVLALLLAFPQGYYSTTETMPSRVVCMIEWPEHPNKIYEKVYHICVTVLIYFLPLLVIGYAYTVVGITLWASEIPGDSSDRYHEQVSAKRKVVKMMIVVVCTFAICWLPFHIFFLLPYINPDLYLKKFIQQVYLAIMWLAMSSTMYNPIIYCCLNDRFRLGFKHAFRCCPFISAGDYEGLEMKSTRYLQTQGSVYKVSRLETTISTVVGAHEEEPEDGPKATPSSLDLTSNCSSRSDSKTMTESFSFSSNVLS
Where a name gives a salt, the structure may show the parent alone.
PROPERTY MEASURED: pIC50
Quick note: pIC50 means taking -log10 of the concentration in moles per liter.

-- ask Please report the recorded pIC50 for O=C(NCC(COCc1cc(C(F)(F)F)cc(C(F)(F)F)c1)c1ccccc1)NC1CCNCC1 (stereo not drawn) [Compound 86, hydrochloride] .
-- reply 8.22

-- ask Please report the recorded pIC50 for O=C(O)CN1CCC(C(=O)NCC(COCc2cc(C(F)(F)F)cc(C(F)(F)F)c2)c2ccccc2)CC1 (stereo not drawn) [Compound 80, hydrochloride] .
-- reply 7.83

-- ask Please report the recorded pIC50 for O=C(NCC(COCc1cc(C(F)(F)F)cc(C(F)(F)F)c1)c1ccc(F)cc1)c1cc[n+]([O-])cc1 (single isomer, unassigned; (-)) [(−)-Compound 21] .
-- reply 8.82

-- ask Please report the recorded pIC50 for O=C(NCC(COCc1cc(C(F)(F)F)cc(C(F)(F)F)c1)c1ccc(F)cc1)c1cc[n+]([O-])cc1 (single isomer, unassigned; (+)) [(+)-Compound 21] .
-- reply 8.05

-- ask Please report the recorded pIC50 for CN(CC(COCc1cc(C(F)(F)F)cc(C(F)(F)F)c1)c1ccc(F)cc1)C(=O)c1ccncc1 (stereo not drawn) [Compound 98] .
-- reply 7.57

-- ask Please report the recorded pIC50 for NCCC(=O)NCC(COCc1cc(C(F)(F)F)cc(C(F)(F)F)c1)c1ccc(F)cc1 (stereo not drawn) [Compound 76, hydrochloride] .
-- reply 7.68

-- ask Please report the recorded pIC50 for NCCCCC(=O)NCC(COCc1cc(C(F)(F)F)cc(C(F)(F)F)c1)c1ccccc1 (stereo not drawn) [Compound 78, hydrochloride] .
-- reply 7.72

-- ask Please report the recorded pIC50 for CN(CC(COCc1cc(C(F)(F)F)cc(C(F)(F)F)c1)c1ccccc1)C(=O)CCCCN (stereo not drawn) [Compound 106, hydrochloride] .
-- reply 7.52

###

assay: Pharmacokinetic test in blood by a single oral administration to guinea pigs; type: in vivo; details: male, Hartley, guinea pig, po, 100 mg/kg orally, plasma, read-out: t½ (converted)
PROPERTY MEASURED: half-life (h)
// units = h; emit number, no label

Here is how some compounds turned out for half-life.
[
  {
    "COMPOUND": "O=C(Cc1ccc[n+]([O-])c1)NCC(COCc1cc(C(F)(F)F)cc(C(F)(F)F)c1)c1ccc(F)cc1 (stereo not shown) [Compound 42]",
    "UNIT TAG": "h",
    "half-life": 3
  },
  {
    "COMPOUND": "O=C(Cc1cc[n+]([O-])cc1)NCC(COCc1cc(C(F)(F)F)cc(C(F)(F)F)c1)c1ccc(F)cc1 (stereo not shown) [Compound 40]",
    "UNIT TAG": "h",
    "half-life": 4
  },
  {
    "COMPOUND": "O=C(NCC(COCc1cc(C(F)(F)F)cc(C(F)(F)F)c1)c1ccc(F)cc1)c1ccc[n+]([O-])c1 (stereo not shown) [Compound 23]",
    "UNIT TAG": "h",
    "half-life": 3.5
  }
]

-- ask Please report the recorded half-life for Cl.O=C(NCC(COCc1cc(C(F)(F)F)cc(C(F)(F)F)c1)c1ccccc1)c1ccc(CN2CCCC2)cc1 (stereo not shown) [Compound 64] .
-- reply 8

###

assay: Pharmacokinetic test in blood by a single oral administration to guinea pigs; format: in vivo; details: male, Hartley, guinea pig, po, 100 mg/kg orally, plasma, read-out: AUC 0-24 h
PROPERTY MEASURED: AUC(0-t)
Please don't drop the unit; write it after the number.

-- ask Please report the recorded AUC(0-t) for O=C(NCC(COCc1cc(C(F)(F)F)cc(C(F)(F)F)c1)c1ccccc1)c1ccc[n+]([O-])c1 (stereo not shown) .
-- reply 200 µg·h/mL

-- ask Please report the recorded AUC(0-t) for O=C(NCC(COCc1cc(C(F)(F)F)cc(C(F)(F)F)c1)c1ccc(F)cc1)c1ccc[n+]([O-])c1 (stereo not shown) .
-- reply 236 µg·h/mL

-- ask Please report the recorded AUC(0-t) for O=C(Cc1ccc[n+]([O-])c1)NCC(COCc1cc(C(F)(F)F)cc(C(F)(F)F)c1)c1ccc(F)cc1 (stereo not shown) .
-- reply 215 µg·h/mL

-- ask Please report the recorded AUC(0-t) for O=C(NCC(COCc1cc(C(F)(F)F)cc(C(F)(F)F)c1)c1ccccc1)c1cc[n+]([O-])cc1 (stereo not shown) .
-- reply 87.3 µg·h/mL

###

experiment: Pharmacokinetic test in blood by a single oral administration to guinea pigs; type: in vivo; conditions: male, Hartley, guinea pig, po, 100 mg/kg orally, plasma, read-out: t½ (converted)
PROPERTY MEASURED: half-life (h)
// units = h; emit number, no label

Here is how some compounds turned out for half-life.
[
  {
    "COMPOUND": "O=C(Cc1cc[n+]([O-])cc1)NCC(COCc1cc(C(F)(F)F)cc(C(F)(F)F)c1)c1ccccc1 (stereo not shown)",
    "half-life (h)": 3.2
  },
  {
    "COMPOUND": "O=C(NCC(COCc1cc(C(F)(F)F)cc(C(F)(F)F)c1)c1ccccc1)c1ccc[n+]([O-])c1 (stereo not shown)",
    "half-life (h)": 2.6
  },
  {
    "COMPOUND": "O=C(CCc1cc[n+]([O-])cc1)NCC(COCc1cc(C(F)(F)F)cc(C(F)(F)F)c1)c1ccccc1 (stereo not shown)",
    "half-life (h)": 3.4
  }
]

Now let's try a different one.
-- ask Please report the recorded half-life for O=C(NCC(COCc1cc(C(F)(F)F)cc(C(F)(F)F)c1)c1ccccc1)c1cc[n+]([O-])cc1 (stereo not shown) .
-- reply 3.4

###

Counter-ions that a name gives are not always drawn.
Endpoint: IC50. System: human NK1 receptor (Homo sapiens). Items follow.
// units = nM; emit number, no label

Here is how some molecules turned out for IC50.
[
  {
    "MOLECULE": "CN(CC(COCc1cc(C(F)(F)F)cc(C(F)(F)F)c1)c1ccc(F)cc1)C(=O)C1CCNCC1 (stereo not shown) [Compound 95, hydrochloride]",
    "SYSTEM TESTED": "human NK1 receptor (Homo sapiens)",
    "IC50 / nM": 15.4
  },
  {
    "MOLECULE": "CN(CC(COCc1cc(C(F)(F)F)cc(C(F)(F)F)c1)c1ccc(F)cc1)C(=O)c1ccnc(O)c1 (stereo not shown) [Compound 100]",
    "SYSTEM TESTED": "human NK1 receptor (Homo sapiens)",
    "IC50 / nM": 11.9
  },
  {
    "MOLECULE": "O=C(Cc1ccc[n+]([O-])c1)NCC(COCc1cc(C(F)(F)F)cc(C(F)(F)F)c1)c1ccc(F)cc1 (stereo not shown) [Compound 42]",
    "SYSTEM TESTED": "human NK1 receptor (Homo sapiens)",
    "IC50 / nM": 4
  },
  {
    "MOLECULE": "CN(CC(COCc1cc(C(F)(F)F)cc(C(F)(F)F)c1)c1ccccc1)C(=O)CCN (stereo not shown) [Compound 102, hydrochloride]",
    "SYSTEM TESTED": "human NK1 receptor (Homo sapiens)",
    "IC50 / nM": 35.5
  }
]

-- ask Please report the recorded IC50 for NCCC(=O)NCC(COCc1cc(C(F)(F)F)cc(C(F)(F)F)c1)c1ccccc1 (stereo not shown) [Compound 74, hydrochloride] .
-- reply 33.6

-- ask Please report the recorded IC50 for O=C(CN1CCC(N2CCCCC2)CC1)NCC(COCc1cc(C(F)(F)F)cc(C(F)(F)F)c1)c1ccccc1 (stereo not shown) [Compound 91, dihydrochloride] .
-- reply 43.5

###

target: human NK1 receptor (Homo sapiens, UniProt P25103); construct: expressed in transfected cells; host or cells: CHO cells (hNK1-CHO); test: Human NK1 receptor binding assay (3H-Sar9-SP, hNK1-CHO cells); conditions: room temperature 60 minutes
Where a name gives a salt, the structure may show the parent alone.
PROPERTY MEASURED: pIC50
Quick note: pIC50 means taking -log10 of the concentration in moles per liter.

Here is how some molecules turned out for pIC50.
[
  {
    "MOLECULE": "NC1CCC(C(=O)NCC(COCc2cc(C(F)(F)F)cc(C(F)(F)F)c2)c2ccccc2)CC1 (stereo not shown) [Compound 88, hydrochloride]",
    "REPORTED": 8.07
  },
  {
    "MOLECULE": "Cl.O=C(NCC(COCc1cc(C(F)(F)F)cc(C(F)(F)F)c1)c1ccccc1)c1ccc(CN2CCCC2)cc1 (stereo not shown) [Compound 64, hydrochloride]",
    "REPORTED": 7.25
  },
  {
    "MOLECULE": "O=C(Cc1cc[n+]([O-])cc1)NCC(COCc1cc(C(F)(F)F)cc(C(F)(F)F)c1)c1ccccc1 (stereo not shown)",
    "REPORTED": 8.14
  },
  {
    "MOLECULE": "CN1CCC(C(=O)N(C)CC(COCc2cc(C(F)(F)F)cc(C(F)(F)F)c2)c2ccccc2)CC1 (stereo not shown) [Compound 96, hydrochloride]",
    "REPORTED": 7.55
  },
  {
    "MOLECULE": "O=C(Cc1ccc[n+]([O-])c1)NCC(COCc1cc(C(F)(F)F)cc(C(F)(F)F)c1)c1ccccc1 (stereo not shown)",
    "REPORTED": 8.04
  },
  {
    "MOLECULE": "CN(CC(COCc1cc(C(F)(F)F)cc(C(F)(F)F)c1)c1ccccc1)C(=O)C1CCNCC1 (stereo not shown) [Compound 93, hydrochloride]",
    "REPORTED": 7.37
  }
]

-- ask Please report the recorded pIC50 for CN(CC(COCc1cc(C(F)(F)F)cc(C(F)(F)F)c1)c1ccc(F)cc1)C(=O)CCN (stereo not shown) [Compound 104, hydrochloride] .
-- reply 8.19

-- ask Please report the recorded pIC50 for O=C(NCC(COCc1cc(C(F)(F)F)cc(C(F)(F)F)c1)c1ccccc1)c1ccc[n+]([O-])c1 (stereo not shown) .
-- reply 8.19

-- ask Please report the recorded pIC50 for Cl.O=C(NCC(COCc1cc(C(F)(F)F)cc(C(F)(F)F)c1)c1ccccc1)C1CCNCC1 (stereo not shown) [Compound 4, hydrochloride] .
-- reply 7.53

-- ask Please report the recorded pIC50 for O=C(NCC(COCc1cc(C(F)(F)F)cc(C(F)(F)F)c1)c1ccc(F)cc1)c1ccc[n+]([O-])c1 (stereo not shown) .
-- reply 8.27
